System: IGROV1 ovarian
procedure_text: NCI tumour cell line growth inhibition, 48 h
reported_endpoint: GI50

* C1C[OH+]CC[OH+]CC[OH+]CC[OH+]CC[OH+]CC[OH+]1.[Cl-].[Nb+5] | > 100 µM
* Oc1ccc(Cl)cc1-c1cc(-c2ccc(F)cc2)n[nH]1 | 1.23 µM
* Cc1ccc2c(c1)C(=O)c1c-2n(CCCN=[N+]=[N-])c(=O)c2cc([N+](=O)[O-])ccc12 | 19.2 µM
* Oc1c(CN2CCOCC2)cc(COCc2ccccc2)c2cccnc12 | 3.85 µM
* C#CCN(Cc1nc2cc(C(F)(F)F)ccc2nc1-c1ccccc1)c1ccc(F)c(F)c1 | 68.1 µM
* ClCC#CCSc1ncnc2c1ncn2CC#CCCl | 1.03 µM
* c1ccc2nc(OCCN3CC3)ccc2c1 | 2.24 µM
* CC(C)(C)C(=O)OCc1nc2cc3c(cc2c(=O)[nH]1)CCC3=O | > 100 µM
* COc1ccc(-c2c(N)n[nH]c2-c2cc(OC)c(OC)c(OC)c2)cc1 | 0.769 µM
* COc1ccc2[nH]c(O)c(/C=c3/cc4c(c(-c5ccc(F)cc5)n3)=Nc3ccccc3-4)c2c1 | 19.6 µM
* CCOc1cc(C(C)(C)C)ccc1C1=N[C@@](C)(c2ccc(Cl)cc2)[C@@](C)(c2ccc(Cl)cc2)N1C(=O)N1CCN(CCS(C)(=O)=O)CC1 | 1.49 µM
* COc1c(N2CCN(Cn3c(O)c(N=NC(=O)c4ccncc4)c4cc(F)ccc43)C(C)C2)c(F)cc2c(=O)c(C(=O)O)cn(C3CC3)c12 (stereo not drawn) | 42.1 µM
* COc1cccc(C2=C(c3cn(C)c4cccc(OC)c34)C(=O)NC2=O)c1 | 7.49 µM

====

Test system: SF-295 CNS
procedure_text: NCI tumour cell line growth inhibition, 48 h; in the data active means GI50 below about 0.43 µM; inactive means the rest
Classes used: Y for active, N for inactive

• C=CCCC(=O)N1C=CC(=O)[C@H](O)[C@@H]1/C=C/c1ccccc1 = N
• CCCCCCCCCCSCC(CO)NC(=O)/C=C/c1c(C)[nH]c(=O)[nH]c1=O (stereo not drawn) = N
• CN1CCN(CCOc2ccc(-c3cnc4c(-c5ccc(F)cc5)cnn4c3)cc2)CC1 = N
• O=C1c2ccn(CCCCN3CCC(O)CC3)c2C(=O)c2c1c(O)c1ccccc1c2O = N
• CO[C@H](C(=O)O)[C@@H]1Cc2cc3cc(OC4CC(OC5CC(O)C(O)C(C)O5)C(O)C(C)O4)c(C)c(O)c3c(O)c2C(=O)[C@H]1OC1CC(OC2CC(OC3CC(C)(O)C(O)C(C)O3)C(O)C(C)O2)C(O)C(C)O1 (stereo partly drawn) = Y
• CCOC(=O)c1ccccc1-c1c2ccc(=[N+](C)C)cc-2oc2cc(N(C)C)ccc12 = Y
• Cc1nnc(-c2ccc(-c3nc4ccccc4o3)cc2)o1 = N
• CCCCCCNC(=O)Oc1ccc(/C(=C(\C)c2ccccc2)c2ccc(OCCN(CC)CC)cc2)cc1 = N

====

System: KM12 colon
procedure_text: NCI tumour cell line growth inhibition, 48 h
Record Yes whenever TGI is at 40 µM or higher; record No when lower.

* O=C(NN=C1CCCCC1)NN=C1CCCCC1 | Yes
* COc1ccc(C[C@@H]2OC3(C=CC(=O)C=C3)O[C@H]2Cc2ccc(OC)cc2)cc1 | No
* COc1cccc(-c2cc(=O)c3cc(Cl)cnc3[nH]2)c1 | Yes
* Nc1c(-c2nc3ccccc3[nH]2)sc(=S)n1-c1ccc(Cl)cc1 | Yes
* O=C1c2ccn(CCCCN3CCC(O)CC3)c2C(=O)c2c1c(O)c1ccccc1c2O | No
* CC(C)c1cccc(C(C)C)c1OS(=O)(=O)NC(=O)OC(C(F)(F)F)C(F)(F)F | Yes
* CC(=O)n1ccc2c(Cl)ncnc21 | Yes
* N=C(N)SCCc1ccccn1 | Yes
* COP(C)(=O)C(Cc1c[nH]c2ccccc12)NC(=O)OCc1ccccc1 (configuration not stated) | Yes
* CCN(CC)CCC(=O)c1ccc(Oc2ccc(F)cc2)cc1 | No
* NS(=O)(=O)c1ccc(NC(=O)Nc2ccccc2F)cc1 | Yes
* C#CCN(C)C(=O)N(CC#C)N=O | Yes

====

Test system: MDA-MB-231 breast
procedure_text: NCI tumour cell line growth inhibition, 48 h
Listed here: items and their measured TGI.
reported_endpoint: TGI

- CCOC(=O)c1ccccc1-c1c2ccc(=[N+](C)C)cc-2oc2cc(N(C)C)ccc12: 10.7 µM
- O=c1c2c3c(sc2n2c(-c4ccc(Br)cc4)nnc2n1Cc1ccccc1)CCCC3: 16.6 µM
- O=C(O)C(=O)CBr: > 100 µM
- N=C(c1cccs1)C1(N2CCCCC2)CCCCC1: 31 µM
- OC(COc1cccc2ccccc12)CN1CCN(c2ccccc2Cl)CC1 (stereo unspecified): 25.5 µM
- COc1cccc(-c2cc(=O)c3cc(Cl)cnc3[nH]2)c1: > 65.5 µM
- COc1cc(-c2nn(-c3ccc(NC(=O)c4cc(Cl)cc(Cl)c4)cc3)cc2-c2ccncc2)ccc1Cl: > 100 µM
- CCCCCCCCCCCCCCCCP(=O)([O-])OCC[N+](C)(C)C: 35.2 µM
- Oc1ccc(Cl)cc1-c1cc(-c2ccc(F)cc2)n[nH]1: 4.35 µM
- COP(C)(=O)C(Cc1c[nH]c2ccccc12)NC(=O)OCc1ccccc1 (stereo unspecified): > 100 µM
- COc1cc([C@@H]2c3cc4c(cc3C[C@H]3COC(=O)[C@@H]32)OCO4)cc2c1OCO2: < 0.0224 µM

====

Tested on: SNB-78 CNS
procedure_text: NCI tumour cell line growth inhibition, 48 h
TGI overview
reported_endpoint: TGI

- O=C1NC2(C=Cc3c(ccc4ccccc34)O2)Oc2ccccc21 (stereo not drawn): 94.1 µM
- NC(=O)N/N=C(/c1nc2ccc([N+](=O)[O-])cc2[nH]c1=O)C(O)c1ccco1 (stereo not drawn): > 100 µM
- COC(=O)Cc1nc2ccccc2o1: > 100 µM
- CC(C)N(C(C)C)P(OCCC#N)OC1CC(n2cnc3c(=O)[nH]cnc32)OC1COC(=O)NCCCCCCNC(=O)OC(C)(C)c1ccc(-c2ccccc2)cc1 (stereo not drawn): > 100 µM
- COc1ccc2c(c1)OCCC1=C2SCC2(C)CCN=C12 (stereo not drawn): > 100 µM
- COc1ccc(C2C(Cl)C(=O)N2NC(=O)Cc2ccccc2)cc1OC (stereo not drawn): > 100 µM
- COc1ccc(/C=N/Nc2nc(C)c3c(n2)Nc2ccccc2NC3=O)cc1: > 100 µM
- Nc1nc(N)c(-c2ccccc2)c(CCC(=O)Nc2ccc(Cl)cc2)n1: > 100 µM
- CC1=C(C(=O)Nc2ccccc2)C(c2ccc(C(C)C)cc2)C(C(=O)Nc2ccccc2)=C(C)N1: > 100 µM
- CN(C)CCNc1nc(-c2cccs2)cc(-c2cccs2)n1: 34.1 µM
- CCOC(=O)NC(=O)c1c[nH]c(=O)[nH]c1=O: > 100 µM
- C#CCN(C)C(=O)N(CC#C)N=O: > 100 µM
- Cn1ccnc1C[N-]Cc1nccn1C.O=[N+]([O-])[O-].O=[N+]([O-])[O-].[Cu+2]: > 100 µM

====

Test system: HCT-15 colon
procedure_text: NCI tumour cell line growth inhibition, 48 h
reported_endpoint: GI50

- N#Cc1cccc(OCc2ccccc2COc2cccc(C#N)c2)c1: > 100 µM
- CN(C)CCNc1nc2ccccc2c2c(=O)c3ccccc3sc12: 1.97 µM
- CCOC(=O)c1ccccc1-c1c2ccc(=[N+](C)C)cc-2oc2cc(N(C)C)ccc12: 2.96 µM
- CCOC(=O)Cc1csc(NC(=O)COC(=O)c2ccc(OC)cc2)n1: > 100 µM

====

System: SK-OV-3 ovarian
procedure_text: NCI tumour cell line growth inhibition, 48 h
reported_endpoint: TGI (µM)

- COc1ccc2c(c1)-c1[nH]c3ccccc3c1CC2: 33.6
- O=[As]c1ccc(C(=O)c2ccc(Oc3ccccc3)cc2)cc1 (stereo unspecified): 0.249
- ClCC#CCSc1ncnc2c1ncn2CC#CCCl: 3.95
- Nc1c(C(=O)Nc2cccc(Br)c2)sc2nc3c(cc12)C(O)CCC3 (stereo unspecified): 40.8
- c1ccc2nc(OCCN3CC3)ccc2c1: 33.6

====

Recorded measurements of TGI, one per entry
Test system: TK-10 renal
procedure_text: NCI tumour cell line growth inhibition, 48 h
reported_endpoint: TGI (µM)

• Cn1ncc(-c2ccc3c(=O)[nH]nc(CN)c3c2)c1-c1c(F)cc2ccccc2c1C#N = 24.1
• CN1CCN(CCOc2ccc(-c3cnc4c(-c5ccc(F)cc5)cnn4c3)cc2)CC1 = 3.5
• CC1CC[C@@]2(OC1)OC1C[C@H]3[C@@H]4CCC5CC(O)CC[C@]5(C)[C@H]4C/C(=N\N(C)C)[C@]3(C)C1[C@@H]2C (some centres undefined) = 86.9
• COC(=O)C(Cc1nc2ccccc2[nH]c1=O)C(=O)C(=O)Nc1cc(C(F)(F)F)ccc1Cl (centres undefined) = 44
• O=C(Nc1cc(-c2cccnc2)nc(NCCCN2CCOCC2)n1)c1cc(Br)cc(C(F)(F)F)c1 = 18.1
